Experiment: In vivo biodistribution in normal ICR mice
Settings: i.v., 10 min
Overview of recorded Biodistribution of radioactivity, intestine for various molecules
Observable: Biodistribution of radioactivity, intestine

[18F]CCOc1ccc(COc2ccc(I)cc2)cc1 [[^18F]12a]: 6.94 ± 0.53 % injected dose per organ
[18F]CCOc1ccc(OCc2ccc(I)cc2)cc1 [[^18F]7a]: 5.38 ± 0.33 % injected dose per organ
FCCOc1ccc(COc2ccc([125I])cc2)cc1 [[^125I]12a]: 10.68 ± 2.60 % injected dose per organ
FCCOc1ccc(OCc2ccc([125I])cc2)cc1 [[^125I]7a]: 17.21 ± 2.33 % injected dose per organ

###

Overview of recorded Biodistribution of radioactivity, intestine for various molecules
Assay: In vivo biodistribution in normal ICR mice
Settings: i.v., 30 min
Observable: Biodistribution of radioactivity, intestine (% injected dose per organ)

FCCOc1ccc(OCc2ccc([125I])cc2)cc1 [[^125I]7a]: 19.88
FCCOc1ccc(COc2ccc([125I])cc2)cc1 [[^125I]12a]: 16.61
[18F]CCOc1ccc(COc2ccc(I)cc2)cc1 [[^18F]12a]: 8.09
[18F]CCOc1ccc(OCc2ccc(I)cc2)cc1 [[^18F]7a]: 5.95

###

Assay: In vivo biodistribution in normal ICR mice
Conditions: i.v., 60 min
Overview of recorded Biodistribution of radioactivity, pancreas for various compounds
Observable: Biodistribution of radioactivity, pancreas (% injected dose per gram)

[18F]CCOc1ccc(OCc2ccc(I)cc2)cc1 [[^18F]7a]: 2.89
FCCOc1ccc(OCc2ccc([125I])cc2)cc1 [[^125I]7a]: 1.97
[18F]CCOc1ccc(COc2ccc(I)cc2)cc1 [[^18F]12a]: 3.95
FCCOc1ccc(COc2ccc([125I])cc2)cc1 [[^125I]12a]: 1.37

###

Overview of recorded Percentage of Parent tracer, Feces for various molecules
Test: In vivo metabolism (biostability), HPLC analysis of organ samples
Conditions: ICR mice, i.v., post-injection time 60 min
Observable: Percentage of Parent tracer, Feces (%)

[18F]CCOc1ccc(OCc2ccc(I)cc2)cc1 [[^18F]7a]: 7.3
FCCOc1ccc(OCc2ccc([125I])cc2)cc1 [[^125I]7a]: 0.0
[18F]CCOc1ccc(COc2ccc(I)cc2)cc1 [[^18F]12a]: 17.4
FCCOc1ccc(COc2ccc([125I])cc2)cc1 [[^125I]12a]: 0.0

###

Test: In vivo biodistribution in normal ICR mice
Conditions: i.v., 2 min
Observable: Biodistribution of radioactivity, liver (% injected dose per gram)

[18F]CCOc1ccc(OCc2ccc(I)cc2)cc1 [[^18F]7a]: 17.83
FCCOc1ccc(COc2ccc([125I])cc2)cc1 [[^125I]12a]: 18.12
FCCOc1ccc(OCc2ccc([125I])cc2)cc1 [[^125I]7a]: 22.45
[18F]CCOc1ccc(COc2ccc(I)cc2)cc1 [[^18F]12a]: 13.20

###

Experiment: In vivo biodistribution in normal ICR mice
Conditions: i.v., 30 min
Observable: Biodistribution of radioactivity, spleen

FCCOc1ccc(OCc2ccc([125I])cc2)cc1 [[^125I]7a]: 1.26 ± 0.20 % injected dose per gram
FCCOc1ccc(COc2ccc([125I])cc2)cc1 [[^125I]12a]: 1.03 ± 0.10 % injected dose per gram
[18F]CCOc1ccc(COc2ccc(I)cc2)cc1 [[^18F]12a]: 4.29 ± 0.36 % injected dose per gram
[18F]CCOc1ccc(OCc2ccc(I)cc2)cc1 [[^18F]7a]: 3.38 ± 0.23 % injected dose per gram

Where do the numbers come from? From paper PMC4501006.
